# SYSTEM UNDER TEST: HLA-B*44:02
# MEASUREMENT PROTOCOL: IEDB peptide-MHC binding, purified MHC/direct/fluorescence; filed as Kd, often an IC50 or EC50 that approximates it; bounds were set here for any values at or beyond the usual limits of such assays
# ASSAY SETUP: source organism: Salmonella enterica
OUTCOME MEASURE: Kd

Exercise: Which Kd is reported for this sequence? `VPQTDAGVT`
Key: ≥ 20 µM

* * *

# SYSTEM UNDER TEST: HLA-A*68:02
# MEASUREMENT PROTOCOL: IEDB peptide-MHC binding, purified MHC/direct/fluorescence; filed as Kd, often an IC50 or EC50 that approximates it; bounds were set here for any values at or beyond the usual limits of such assays
# ASSAY SETUP: source organism: Brucella melitensis bv. 1 str. 16M
pKd: −log10 of the molar value.
OUTCOME MEASURE: pKd

Exercise: Quick one: pKd of `TTRAVNMEV` ?
Key: ≥ 9.00

* * *

# SYSTEM UNDER TEST: HLA-A*02:01
# MEASUREMENT PROTOCOL: IEDB peptide-MHC binding, purified MHC/competitive/fluorescence; filed as Kd, often an IC50 or EC50 that approximates it; bounds were set here for any values at or beyond the usual limits of such assays
# ASSAY SETUP: source organism: Cowpox virus
OUTCOME MEASURE: Kd
Don't forget the unit after the value.

Exercise: What does the data say about its Kd? Entry: `NMNNDSYYF`
Key: 0.0113 µM

* * *

# SYSTEM UNDER TEST: HLA-B*18:01
# MEASUREMENT PROTOCOL: IEDB peptide-MHC binding, purified MHC/competitive/radioactivity; filed as Kd, often an IC50 or EC50 that approximates it; bounds were set here for any values at or beyond the usual limits of such assays
# ASSAY SETUP: source organism: Mammarenavirus guanaritoense
OUTCOME MEASURE: Kd (nM)
Lab book: enter the figure in nM, no units written.

Exercise: Bench note: what Kd did `TEQFINYCL` show?
Key: 399

* * *

# SYSTEM UNDER TEST: HLA-B*18:01
# MEASUREMENT PROTOCOL: IEDB peptide-MHC binding, purified MHC/competitive/fluorescence; filed as Kd, often an IC50 or EC50 that approximates it; bounds were set here for any values at or beyond the usual limits of such assays
# ASSAY SETUP: source organism: Giardia lamblia ATCC 50803
pKd: −log10 of the molar value.
OUTCOME MEASURE: pKd

Exercise: So what pKd did `APDGFYPFK` get with HLA-B*18:01?
Key: ≤ 4.70

* * *

# SYSTEM UNDER TEST: HLA-A*01:01
# MEASUREMENT PROTOCOL: IEDB peptide-MHC binding, purified MHC/competitive/fluorescence; bounds were set here for any values at or beyond the usual limits of such assays
# ASSAY SETUP: source organism: Tarsius lariang
pIC50: −log10 of the molar value.
OUTCOME MEASURE: pIC50

Exercise: Which pIC50 is reported for this sequence? `TEAEKWPFF`
Key: ≤ 4.70

* * *

# SYSTEM UNDER TEST: HLA-A*03:01
# MEASUREMENT PROTOCOL: IEDB peptide-MHC binding, purified MHC/direct/fluorescence; filed as Kd, often an IC50 or EC50 that approximates it; bounds were set here for any values at or beyond the usual limits of such assays
# ASSAY SETUP: source organism: Yersinia pestis
OUTCOME MEASURE: Kd

Exercise: Which Kd is listed for `SDDQLRLLK` ?
Key: ≥ 20 µM
